# assayed_target: HLA-B*57:01
# measurement_protocol: IEDB peptide-MHC binding, purified MHC/direct/fluorescence; filed as Kd, often an IC50 or EC50 that approximates it; bounds were set here for any values at or beyond the usual limits of such assays
# experimental_parameters: source organism: Mycobacterium tuberculosis
Would you kindly list Kd for each of these sequences?

Reference set (2 entries):
> print(dat)
   record.sequence  recorded.measurement
1        KVMVICYAY               ≥ 20 µM
2        RPAPATGAL               ≥ 20 µM

What value of measured Kd is listed for `YPACEAIGL` ? ≥ 20 µM

* * *

# assayed_target: HLA-A*33:01
# measurement_protocol: IEDB peptide-MHC binding, purified MHC/competitive/radioactivity; filed as Kd, often an IC50 or EC50 that approximates it; bounds were set here for any values at or beyond the usual limits of such assays
# experimental_parameters: source organism: SARS coronavirus ZJ0301
recorded_endpoint: pKd
Numbers only, as −log10 of the molar value.

What value of measured pKd is listed for `LLNSNALLR` ? 5.16

* * *

# assayed_target: HLA-A*03:01
# measurement_protocol: IEDB peptide-MHC binding, purified MHC/competitive/fluorescence; bounds were set here for any values at or beyond the usual limits of such assays
# experimental_parameters: source organism: Vaccinia virus Copenhagen
recorded_endpoint: pIC50
Answers are plain numbers, as −log10 of the molar value.

What value of measured pIC50 is listed for `KSISKSNAK` ? 5.52

* * *

# assayed_target: HLA-B*15:01
# measurement_protocol: IEDB peptide-MHC binding, purified MHC/competitive/fluorescence; filed as Kd, often an IC50 or EC50 that approximates it; bounds were set here for any values at or beyond the usual limits of such assays
# experimental_parameters: source organism: Vibrio vulnificus
pKd: −log10 of the molar value.
recorded_endpoint: pKd

What value of measured pKd is listed for `DEWECTRDD` ? ≤ 4.70

* * *

Would you kindly list Kd for each of these sequences?
# assayed_target: HLA-A*23:01
# measurement_protocol: IEDB peptide-MHC binding, purified MHC/competitive/radioactivity; filed as Kd, often an IC50 or EC50 that approximates it; bounds were set here for any values at or beyond the usual limits of such assays
# experimental_parameters: source organism: Dengue virus 2 Jamaica/1409/1983

> print(dat)
   record.sequence  assayed.target  recorded.endpoint  recorded.measurement
1        GYISTRVEM     HLA-A*23:01                 Kd               1140 nM
2       MWHVTRGAVL     HLA-A*23:01                 Kd               1460 nM

Continue with the next sequence.
What value of measured Kd is listed for `QVGTYGLNTF` ? 790 nM

* * *

# assayed_target: HLA-A*02:12
# measurement_protocol: IEDB peptide-MHC binding, purified MHC/competitive/fluorescence; filed as Kd, often an IC50 or EC50 that approximates it; bounds were set here for any values at or beyond the usual limits of such assays
# experimental_parameters: source organism: Cryptosporidium parvum Iowa II
recorded_endpoint: Kd

What value of measured Kd is listed for `RIYKRSLKL` ? ≥ 20 µM

* * *

# assayed_target: HLA-B*44:03
# measurement_protocol: IEDB peptide-MHC binding, purified MHC/competitive/radioactivity; filed as Kd, often an IC50 or EC50 that approximates it; bounds were set here for any values at or beyond the usual limits of such assays
# experimental_parameters: source organism: Lymphocytic choriomeningitis virus (strain WE)
recorded_endpoint: Kd (µM)
Answers are plain numbers, in µM.

What value of measured Kd is listed for `REPTDQKQF` ? 8.94

* * *

# assayed_target: HLA-A*03:01
# measurement_protocol: IEDB peptide-MHC binding, purified MHC/competitive/radioactivity; filed as Kd, often an IC50 or EC50 that approximates it; bounds were set here for any values at or beyond the usual limits of such assays
# experimental_parameters: source organism: Lymphocytic choriomeningitis virus (strain Armstrong)
Would you kindly list Kd for each of these sequences?
One number for each entry, in µM.

> print(dat)
   record.sequence  recorded.endpoint  recorded.measurement
1       TLYICDKQSH                 Kd                  15.1

Continue with the next sequence.
What value of measured Kd is listed for `TLGNFSWFPH` ? 2.15

* * *

# assayed_target: HLA-B*44:02
# measurement_protocol: IEDB peptide-MHC binding, purified MHC/competitive/radioactivity; filed as Kd, often an IC50 or EC50 that approximates it; bounds were set here for any values at or beyond the usual limits of such assays
# experimental_parameters: source organism: Dengue virus 4 Philippines/H241/1956
pKd: −log10 of the molar value.
Cut-off 7 on pKd, inclusive. At or above means YES; below means NO.

Examples from the recorded data:
> print(dat)
   record.sequence  assayed.target  answer.label
1        LEKAANVQW     HLA-B*44:02           YES
2       GEIGAVTLDF     HLA-B*44:02           YES
3       AGISYKDREW     HLA-B*44:02            NO

Please tell me: is the sequence `KEVALLRTY` at or over 7 in terms of pKd? YES

* * *

# assayed_target: HLA-B*15:01
# measurement_protocol: IEDB peptide-MHC binding, purified MHC/competitive/fluorescence; filed as Kd, often an IC50 or EC50 that approximates it; bounds were set here for any values at or beyond the usual limits of such assays
# experimental_parameters: source organism: Zaire ebolavirus
Would you kindly list Kd for each of these sequences?

> print(dat)
   record.sequence  assayed.target  recorded.measurement
1        SMHYKLDEV     HLA-B*15:01               ≥ 20 µM
2        LESLTDREL     HLA-B*15:01               ≥ 20 µM

Continue with the next sequence.
What value of measured Kd is listed for `DLEKYNLAF` ? ≥ 20 µM

* * *

# assayed_target: HLA-A*68:01
# measurement_protocol: IEDB peptide-MHC binding, purified MHC/competitive/radioactivity; filed as Kd, often an IC50 or EC50 that approximates it; bounds were set here for any values at or beyond the usual limits of such assays
# experimental_parameters: source organism: Vaccinia virus WR
Would you kindly list pKd for each of these sequences?
Numbers only, as −log10 of the molar value.

Reference set (8 entries):
> print(dat)
   record.sequence  recorded.endpoint  recorded.measurement
1       RSKMLKRGSR                pKd                  6.78
2        LLPSTDVNK                pKd                  5.16
3       KIAPGIADIR                pKd                  5.27
4        IMFEQYFIY                pKd                  6.69
5       TVLPHLCLDY                pKd                  6.15
6        SMASLKSLY                pKd                  7.58
7        NISFKSINK                pKd                  6.92
8       IMNLEMIDER                pKd                  5.44

Parameter requested: pKd. Apply to each item below.
1. LTPIFSDLLK
2. TTDDLVKSY

7.76
4.92

Parameter requested: pKd. Apply to each item below.
1. GLKIEEIEK
2. IITVGMLIY
3. FTFGDTALY

[4.77, 6.22, 8.64]

Parameter requested: pKd. Apply to each item below.
1. EQNLTDTNFK
2. MAVEVGSIR
3. AFNDDGIYIR
4. GTGLWTHDK
5. NFLRSIAMLK
6. NFITKEIKNR
7. RLVEEFFNR

[6.17, 8.87, 5.77, 6.81, 6.57, 6.28, 7.53]

Parameter requested: pKd. Apply to each item below.
1. AMENLKAMLY
2. QLEDSEYLFR
3. QVKDNIISR
4. SVQLSNNKY
5. KIEEIEKVEK

[5.55, 7.04, 7.95, 5.90, 6.38]

* * *

# assayed_target: HLA-B*53:01
# measurement_protocol: IEDB peptide-MHC binding, purified MHC/competitive/radioactivity; filed as Kd, often an IC50 or EC50 that approximates it; bounds were set here for any values at or beyond the usual limits of such assays
# experimental_parameters: source organism: Dengue virus 4 Philippines/H241/1956
Would you kindly list pKd for each of these sequences?
One number for each entry, as −log10 of the molar value.

Reference set (2 entries):
> print(dat)
   record.sequence  recorded.measurement
1        MALKDFKEF                  6.86
2       MPLVMAWRTI                  7.97

Continue with the next sequence.
What value of measured pKd is listed for `LPESLETLM` ? 6.25
